Parameter IC50: see the listing below.
molecular target: HLA-A0207 (Homo sapiens, UniProt P04439, D140Y/D185E/D98H/E176V/E277Q/G131W/G231S/I119V/I121R/I166T/I218V/L300P/L318F/N151K/N90K/P208A/P217A/Q86G/Q94H/R138H/R169H/T345S/Y123C); construct: expressed in transfected cells; host or cells: HMy2.CIR; assay: cell-based; format: binding
Residues, ends and D or L forms follow the SMILES beside them.

Observe how each entry below is paired with its result.
CC(C)C[C@H](NC(=O)[C@H](CO)NC(=O)[C@H](Cc1ccccc1)NC(=O)[C@H](Cc1ccccc1)NC(=O)CNC(=O)[C@H](C)NC(=O)[C@H](CCC(N)=O)NC(=O)[C@@H](N)CC(C)C)C(=O)N[C@H](C(=O)N[C@@H](CCCCN)C(=O)O)[C@@H](C)O [Epitope P103] (H-LQAGFFSLTK-OH; N-terminus and C-terminus assumed)	> 15 µM
CC(C)C[C@H](NC(=O)[C@H](Cc1ccc(O)cc1)NC(=O)[C@H](CCC(=O)O)NC(=O)[C@H](CC(C)C)NC(=O)[C@@H](NC(=O)[C@@H](NC(=O)[C@@H](N)CCC(=O)O)[C@@H](C)O)C(C)C)C(=O)N[C@H](C(=O)N[C@@H](CO)C(=O)N[C@H](C(=O)O)C(C)C)C(C)C [Epitope P118] (H-ETVLEYLVSV-OH; N-terminus and C-terminus assumed)	> 15 µM
CC(C)C[C@H](N)C(=O)N[C@@H](Cc1ccc(O)cc1)C(=O)N[C@@H](CO)C(=O)N[C@@H](CO)C(=O)N[C@H](C(=O)N[C@H](C(=O)N1CCC[C@H]1C(=O)N[C@H](C(=O)N[C@@H](Cc1ccccc1)C(=O)O)C(C)C)C(C)C)[C@@H](C)O [Epitope P56] (H-LYSSTVPVF-OH; N-terminus and C-terminus assumed)	> 15 µM

Query string: IC50 lookup needed for CC[C@H](C)[C@H](N)C(=O)N[C@@H](CC(C)C)C(=O)N[C@@H](CS)C(=O)N[C@@H](Cc1c[nH]c2ccccc12)C(=O)NCC(=O)N[C@@H](CCC(=O)O)C(=O)N[C@@H](CC(C)C)C(=O)N[C@@H](CCSC)C(=O)N[C@@H](CC(N)=O)C(=O)N[C@@H](CC(C)C)C(=O)O [Epitope P74] (H-ILCWGELMNL-OH; N-terminus and C-terminus assumed) , thanks.
Result string: > 15 µM

Query string: IC50 lookup needed for CC[C@H](C)[C@H](NC(=O)[C@H](Cc1c[nH]cn1)NC(=O)[C@H](Cc1ccccc1)NC(=O)[C@@H](N)Cc1c[nH]c2ccccc12)C(=O)N[C@@H](CO)C(=O)N[C@@H](CS)C(=O)N[C@@H](CC(C)C)C(=O)N[C@H](C(=O)N[C@@H](Cc1ccccc1)C(=O)O)[C@@H](C)O [Epitope P52] , thanks.
Result string: > 15 µM

Query string: IC50 lookup needed for CSCC[C@H](NC(=O)[C@@H](N)CCSC)C(=O)N[C@@H](Cc1c[nH]c2ccccc12)C(=O)N[C@@H](Cc1ccccc1)C(=O)N[C@@H](Cc1c[nH]c2ccccc12)C(=O)NCC(=O)N1CCC[C@H]1C(=O)N[C@@H](CO)C(=O)N[C@@H](CC(C)C)C(=O)O [Epitope P71] (H-MMWFWGPSL-OH; N-terminus and C-terminus assumed) , thanks.
Result string: < 5 µM
